Target: T1, EsCas13d, nuclease-dead (Eubacterium siraeum, UniProt B0MS50, R295A;H300A;R849A;H854A)
T1 sequence: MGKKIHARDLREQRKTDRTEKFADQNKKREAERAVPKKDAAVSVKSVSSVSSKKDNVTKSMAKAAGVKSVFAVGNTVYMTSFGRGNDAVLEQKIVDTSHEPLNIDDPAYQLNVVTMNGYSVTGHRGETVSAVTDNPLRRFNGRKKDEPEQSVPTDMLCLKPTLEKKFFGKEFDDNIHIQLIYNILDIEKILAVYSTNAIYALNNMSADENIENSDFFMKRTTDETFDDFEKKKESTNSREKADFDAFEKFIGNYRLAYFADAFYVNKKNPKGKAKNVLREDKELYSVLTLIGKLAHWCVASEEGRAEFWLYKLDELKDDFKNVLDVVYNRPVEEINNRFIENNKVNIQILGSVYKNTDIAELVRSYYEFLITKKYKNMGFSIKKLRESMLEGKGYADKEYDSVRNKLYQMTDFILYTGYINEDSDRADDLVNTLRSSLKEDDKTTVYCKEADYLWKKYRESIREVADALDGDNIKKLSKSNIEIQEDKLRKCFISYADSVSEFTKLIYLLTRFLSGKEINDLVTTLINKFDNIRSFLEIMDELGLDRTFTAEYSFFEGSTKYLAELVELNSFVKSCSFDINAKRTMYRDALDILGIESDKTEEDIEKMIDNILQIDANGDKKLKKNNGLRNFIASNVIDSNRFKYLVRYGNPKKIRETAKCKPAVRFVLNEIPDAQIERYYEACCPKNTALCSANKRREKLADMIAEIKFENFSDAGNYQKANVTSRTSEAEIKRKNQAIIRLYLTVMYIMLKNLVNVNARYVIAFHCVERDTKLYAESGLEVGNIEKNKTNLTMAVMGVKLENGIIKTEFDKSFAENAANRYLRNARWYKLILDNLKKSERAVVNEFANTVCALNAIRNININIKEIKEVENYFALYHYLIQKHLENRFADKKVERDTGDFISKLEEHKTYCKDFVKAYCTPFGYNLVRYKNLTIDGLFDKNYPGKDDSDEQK
Assay: crRNA (strand 1, pre-loaded); Mg2+; 40 mM Tris-HCl pH 7.5, 150 mM NaCl, 6 mM MgCl2, 1 mM DTT, 0.1% Tween-20, 0.2 mg/ml BSA; 25 C; 10 min per concentration, then washed
Settings: tags: His6-TwinStrep-SUMO cleaved; N-terminal SNAP kept (SNAP-Surface 488); label: 3' end held by stalled T7 RNA polymerase

[
  {
    "binder": "target 2 MT 5'PFS GCA 3'PFS CUA (mixed) RNA 1: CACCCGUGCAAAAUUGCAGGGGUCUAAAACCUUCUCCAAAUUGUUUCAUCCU RNA 2: GGGAAUGGAUCCACAUCUACGAAUUCGCAAGGAUGAAACAAUUUGGAGAAGCUAAGAUCGGAAGAGCACACGU",
    "Kd [nM]": 10.9
  },
  {
    "binder": "target 1 A9C,U11C (mixed) RNA 1: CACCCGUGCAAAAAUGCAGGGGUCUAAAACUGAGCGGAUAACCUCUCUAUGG RNA 2: GGGAAUGGAUCCACAUCUACGAAUUCGUACCAUAGAGAGGCUCUCCGCUCACCGAGAUCGGAAGAGCACACGU",
    "Kd [nM]": 20
  },
  {
    "binder": "target 1 C7U,A9G (mixed) RNA 1: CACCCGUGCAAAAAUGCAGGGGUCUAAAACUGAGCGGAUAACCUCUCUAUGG RNA 2: GGGAAUGGAUCCACAUCUACGAAUUCGUACCAUAGAGAGGUUGUUCGCUCACCGAGAUCGGAAGAGCACACGU",
    "Kd [nM]": 15.7
  },
  {
    "binder": "target 2 MT 5'PFS UUG 3'PFS CUU (mixed) RNA 1: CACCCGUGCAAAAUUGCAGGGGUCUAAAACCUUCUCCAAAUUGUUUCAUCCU RNA 2: GGGAAUGGAUCCACAUCUACGAAUUCUUGAGGAUGAAACAAUUUGGAGAAGCUUAGAUCGGAAGAGCACACGU",
    "Kd [nM]": 15.9
  },
  {
    "binder": "target 1 insA 3' of 5,insU 3' of 5 (mixed) RNA 1: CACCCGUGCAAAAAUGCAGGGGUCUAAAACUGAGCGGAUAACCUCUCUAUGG RNA 2: GGGAAUGGAUCCACAUCUACGAAUUCGUACCAUAGAGAGGUUAUCCGAUCUCACCGAGAUCGGAAGAGCACACGU",
    "Kd [nM]": 6.6
  },
  {
    "binder": "target 1 insA 3' of 19,insU 3' of 15 (mixed) RNA 1: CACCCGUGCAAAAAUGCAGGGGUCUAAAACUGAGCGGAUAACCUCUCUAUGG RNA 2: GGGAAUGGAUCCACAUCUACGAAUUCGUACCAUAAGAGUAGGUUAUCCGCUCACCGAGAUCGGAAGAGCACACGU",
    "Kd [nM]": 23.2
  },
  {
    "binder": "target 1 insA 3' of 12,insA 3' of 8 (mixed) RNA 1: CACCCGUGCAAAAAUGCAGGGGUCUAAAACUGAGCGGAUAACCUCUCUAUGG RNA 2: GGGAAUGGAUCCACAUCUACGAAUUCGUACCAUAGAGAGGAUUAUACCGCUCACCGAGAUCGGAAGAGCACACGU",
    "Kd [nM]": 37
  }
]
